# S9% remaining @ xy min listing for each entry below
# experiment_notes: S9 fraction stability assay
# Format: in vitro ADME
# recorded_conditions: 60 min; rat liver S9, 10 μM
measure: S9% remaining @ xy min

compound_structure_string=CCCCCn1cc(C(=O)c2cccc3ccccc23)c2cccc(F)c21 endpoint_value=50%
compound_structure_string=CCCc1ccc(C(=O)c2cn(CCCCCF)c3cccc(F)c23)c2ccccc12 endpoint_value="6 @ 60%"
compound_structure_string=COC(=O)c1ccc(C(=O)c2cn(CCN3CCOCC3)c3ccccc23)c2ccccc12 endpoint_value="0 @ 60%"
compound_structure_string=CCCCCn1cc(C(=O)c2cccc3ccccc23)c2c(F)cccc21 endpoint_value="5 @ 60%"
compound_structure_string=CCCCCn1cc(C(=O)c2cccc3ccccc23)c2cc(F)ccc21 endpoint_value="13 @ 60%"
compound_structure_string=CCCCCn1cc(C(=O)c2ccc(C(=O)CC)c3ccccc23)c2ccccc21 endpoint_value="3 @ 60%"

---

# experimental_system: CB2R (Homo sapiens)
# experiment_notes: CB2R radioligand displacement binding assay (CP55940 radioligand)
Ki overview
measure: Ki (µM)

compound="COc1ccc(/C=C2\\C=C(CCN3CCOCC3)c3ccccc32)c2ccccc12 [Compound 10]" endpoint_value=0.00417
compound="C1=C(CCN2CCOCC2)c2ccccc2/C1=C/c1ccccc1 [Compound 29]" endpoint_value=0.295
compound="CCCCCn1cc(C(=O)c2ccc(C(=O)CC)c3ccccc23)c2ccccc21 [Compound 61]" endpoint_value=0.0327

---

Known Rotarod % change from pre-drug (0.3 mg/kg) at 2-3 hr of a selection of compounds
# Test system: rats
# experiment_notes: Rotarod test of the tetrad
# Type: in vivo, rat
# recorded_conditions: 2-3 hr
measure: Rotarod % change from pre-drug (0.3 mg/kg) at 2-3 hr (%)

compound_structure_string=C1=C(CCN2CCOCC2)c2ccccc2/C1=C/c1cccc2ccccc12 experimental_system=rats endpoint_value=0
compound_structure_string=COc1ccc(/C=C2\C=C(CCN3CCOCC3)c3ccccc32)c2ccccc12 experimental_system=rats endpoint_value=0
compound_structure_string=CCCCCn1cc(C(=O)c2cccc3ccccc23)c2cccc(F)c21 experimental_system=rats endpoint_value=0
compound_structure_string=CCCc1ccc(/C=C2\C=C(CCN3CCOCC3)c3ccccc32)c2ccccc12 experimental_system=rats endpoint_value=0

---

# experimental_system: CB2R (Homo sapiens)
# experiment_notes: CB2R radioligand displacement binding assay (CP55940 radioligand)
With a cut-off of 1000 nM, any Ki strictly below it is called met; any Ki meeting it or above is called not met.

compound_structure_string=Brc1ccccc1/C=C1\C=C(CCN2CCOCC2)c2ccccc21 class=met
compound_structure_string=C1=C(CCN2CCOCC2)c2ccccc2/C1=C/c1ccnc2ccccc12 class=met
compound_structure_string=CCCCCCC1=C/C(=C\Cc2ccccc2)c2ccccc21 class="not met"
compound_structure_string=O=C(c1cccc2ccccc12)c1cn(CCN2CCOCC2)c2cccc(F)c12 class=met
compound_structure_string=CCCCCn1cc(C(=O)c2ccc(C(=O)NC)c3ccccc23)c2ccccc21 class=met
compound_structure_string=C1=C(CCN2CCOCC2)c2ccccc2/C1=C/c1cccc(-c2ccccc2)c1 class=met
compound_structure_string=Ic1ccccc1/C=C1\C=C(CCN2CCOCC2)c2ccccc21 class=met
compound_structure_string=C1=C(CCN2CCOCC2)c2ccccc2/C1=C/c1cccs1 class="not met"
compound_structure_string=CCCCCCC1=C/C(=C\c2cccc3ccccc23)c2ccccc21 class="not met"

---

# experiment_notes: Plasma stability assay
# Format: in vitro ADME
# recorded_conditions: 60 min; rat plasma, 10 μM
measure: Plasma % remaining @ xy min

compound="COC(=O)c1ccc(C(=O)c2cn(CCN3CCOCC3)c3ccccc23)c2ccccc12 [Compound 56]" endpoint_value="0 @ 60%"
compound="CCCCCn1cc(C(=O)c2ccc(C(=O)CC)c3ccccc23)c2ccccc21 [Compound 61]" endpoint_value="75 @ 60%"
compound="CCCCCn1cc(C(=O)c2cccc3ccccc23)c2c(F)cccc21 [Compound 62]" endpoint_value="69 @ 60%"
compound="CCCCCn1cc(C(=O)c2cccc3ccccc23)c2cc(F)ccc21 [Compound 63]" endpoint_value="99 @ 60%"
compound="CCCc1ccc(C(=O)c2cn(CCCCCF)c3cccc(F)c23)c2ccccc12 [Compound 67]" endpoint_value="95 @ 60%"
compound="CCCCCn1cc(C(=O)c2cccc3ccccc23)c2cccc(F)c21 [Compound 65]" endpoint_value="97 @ 60%"

---

# experimental_system: CB1R (Homo sapiens)
# Sequence (P21554 whole entry): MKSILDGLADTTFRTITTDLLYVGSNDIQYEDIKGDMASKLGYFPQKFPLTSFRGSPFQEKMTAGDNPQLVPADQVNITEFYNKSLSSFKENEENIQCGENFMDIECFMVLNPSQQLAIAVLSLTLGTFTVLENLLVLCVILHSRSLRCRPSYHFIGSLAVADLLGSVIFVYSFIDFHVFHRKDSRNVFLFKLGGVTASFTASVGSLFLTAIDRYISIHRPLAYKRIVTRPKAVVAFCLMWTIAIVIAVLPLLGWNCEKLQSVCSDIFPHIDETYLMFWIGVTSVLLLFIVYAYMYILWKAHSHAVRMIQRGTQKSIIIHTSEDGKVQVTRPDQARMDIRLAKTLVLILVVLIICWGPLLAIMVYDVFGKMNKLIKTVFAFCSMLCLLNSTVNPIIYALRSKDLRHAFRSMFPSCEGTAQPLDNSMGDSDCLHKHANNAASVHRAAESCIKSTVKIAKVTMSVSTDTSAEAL
# experiment_notes: CB1R radioligand displacement binding assay (CP55940 radioligand)
# recorded_conditions: Table 1; CP55940 radioligand; read-out: CB1_KI_CP
pKi: −log10 of the molar value.
The entries below are paired with their reported pKi.
measure: pKi

compound=C1=C(CCN2CCOCC2)c2ccccc2/C1=C/c1cccs1 endpoint_value=5.07
compound=C1=C(CCN2CCOCC2)c2ccccc2/C1=C/c1cccc2ccc3ccccc3c12 endpoint_value=7.64
compound="CCCCCC1=C/C(=C\\c2cccc3ccccc23)c2ccccc21 [Compound 19, reference compound]" endpoint_value=7.76
compound=CCOC(=O)CCCCn1cc(C(=O)c2cccc3ccccc23)c2ccccc21 endpoint_value=5.83
compound=COC(=O)c1ccc(C(=O)c2cn(CCN3CCOCC3)c3ccccc23)c2ccccc12 endpoint_value=7.28

---

Each entry below carries its reported Ki.
# experimental_system: CB2R (Homo sapiens, UniProt P34972)
# Sequence (P34972 whole entry): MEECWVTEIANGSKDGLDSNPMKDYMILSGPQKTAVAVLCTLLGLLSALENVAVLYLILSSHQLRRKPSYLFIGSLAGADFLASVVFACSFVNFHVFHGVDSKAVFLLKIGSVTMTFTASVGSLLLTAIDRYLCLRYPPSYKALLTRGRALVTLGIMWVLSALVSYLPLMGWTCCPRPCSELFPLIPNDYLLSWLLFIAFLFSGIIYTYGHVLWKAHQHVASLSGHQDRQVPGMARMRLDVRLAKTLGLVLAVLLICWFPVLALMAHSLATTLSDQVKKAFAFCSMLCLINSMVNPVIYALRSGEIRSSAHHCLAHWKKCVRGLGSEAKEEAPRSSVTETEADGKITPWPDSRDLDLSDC
# experiment_notes: CB2R radioligand displacement binding assay (CP55940 radioligand)
measure: Ki (nM)

molecule=CC1=C(CCN2CCOCC2)c2ccccc2/C1=C/c1cccc2ccccc12 measure=Ki unit_of_measurement=nM endpoint_value=2.84
molecule=CCCCCn1cc(C(=O)c2ccc(C(=O)OC)c3ccccc23)c2ccccc21 measure=Ki unit_of_measurement=nM endpoint_value=73.4
molecule=CCCCCn1cc(C(=O)c2ccc(C(N)=O)c3ccccc23)c2ccccc21 measure=Ki unit_of_measurement=nM endpoint_value=135
molecule=COc1ccccc1/C=C1\C=C(CCN2CCOCC2)c2ccccc21 measure=Ki unit_of_measurement=nM endpoint_value=29.8
molecule=Fc1ccccc1/C=C1\C=C(CCN2CCOCC2)c2ccccc21 measure=Ki unit_of_measurement=nM endpoint_value=429
molecule=C1=C(CCN2CCOCC2)c2ccccc2/C1=C/c1ccc2ccccc2c1 measure=Ki unit_of_measurement=nM endpoint_value=24.4
molecule=Cc1ccccc1/C=C1\C=C(CCN2CCOCC2)c2ccccc21 measure=Ki unit_of_measurement=nM endpoint_value=95.4
molecule=CCCc1ccc(C(=O)c2cn(CCCCCF)c3cccc(F)c23)c2ccccc12 measure=Ki unit_of_measurement=nM endpoint_value=3.61
molecule="CCCCCn1cc(C(=O)c2cccc3ccccc23)c2ccccc21 [Compound 1, reference compound]" measure=Ki unit_of_measurement=nM endpoint_value=7.38

---

# experiment_notes: Pharmacokinetic profiling: plasma, CSF and brain levels by LC-MS/MS
# Format: in vivo, rat
# recorded_conditions: rat, CSF and plasma, intraperitoneal; 0.3 mg/kg, i.p.; ~75 min after administration; mean±SEM, n=3 rats
measure: Kp

compound_structure_string=CCCc1ccc(/C=C2\C=C(CCN3CCOCC3)c3ccccc32)c2ccccc12 measure=Kp endpoint_value=0.001

---

# Emax per record follows
# experimental_system: human CB1R (hCB1R) (Homo sapiens, UniProt P21554)
# Sequence (P21554 whole entry): as the sequence (P21554 whole entry) above
# experiment_notes: human CB1R (hCB1R) calcium flux assay
# Assay type: cell-based
# recorded_conditions: Table 1; read-out: Ca Flux % Emax
measure: Emax (%)

compound="CCCCCn1cc(C(=O)c2cccc3ccccc23)c2cccc(F)c21 [Compound 65]" experimental_system="human CB1R (hCB1R) (Homo sapiens, UniProt P21554)" endpoint_value=79
compound="CCc1ccc(/C=C2\\C=C(CCN3CCOCC3)c3ccccc32)c2ccccc12 [Compound 8]" experimental_system="human CB1R (hCB1R) (Homo sapiens, UniProt P21554)" endpoint_value=121
compound="COc1ccc(/C=C2\\C=C(CCN3CCOCC3)c3ccccc32)c2ccccc12 [Compound 10]" experimental_system="human CB1R (hCB1R) (Homo sapiens, UniProt P21554)" endpoint_value=114
compound="CCCc1ccc(/C=C2\\C=C(CCN3CCOCC3)c3ccccc32)c2ccccc12 [Compound 9]" experimental_system="human CB1R (hCB1R) (Homo sapiens, UniProt P21554)" endpoint_value=108
compound="C1=C(CCN2CCOCC2)c2ccccc2/C1=C/c1cccc2ccccc12 [Compound 11]" experimental_system="human CB1R (hCB1R) (Homo sapiens, UniProt P21554)" endpoint_value=103

---

# experiment_notes: S9 fraction stability assay
# Format: in vitro ADME
# recorded_conditions: 30 min; rat liver S9, 10 μM
The molecules listed here are annotated with their S9% remaining @ xy min.
measure: S9% remaining @ xy min

compound_structure_string=CCCCCn1cc(C(=O)c2cccc3ccccc23)c2cccc(F)c21 endpoint_value=~58%
compound_structure_string=C1=C(CCN2CCOCC2)c2ccccc2/C1=C/c1cccc2ccccc12 endpoint_value="35 @ 30%"
compound_structure_string=CCCCCn1cc(C(=O)c2ccc(C(=O)OC)c3ccccc23)c2ccccc21 endpoint_value="2.62 @ 30%"
compound_structure_string=CCCc1ccc(/C=C2\C=C(CCN3CCOCC3)c3ccccc32)c2ccccc12 endpoint_value=39%

// provenance: patent US9656981B2
